Target: Human immunodeficiency virus type 1 integrase (Human immunodeficiency virus 1, UniProt Q7ZJM1)
Sequence (Q7ZJM1 whole entry): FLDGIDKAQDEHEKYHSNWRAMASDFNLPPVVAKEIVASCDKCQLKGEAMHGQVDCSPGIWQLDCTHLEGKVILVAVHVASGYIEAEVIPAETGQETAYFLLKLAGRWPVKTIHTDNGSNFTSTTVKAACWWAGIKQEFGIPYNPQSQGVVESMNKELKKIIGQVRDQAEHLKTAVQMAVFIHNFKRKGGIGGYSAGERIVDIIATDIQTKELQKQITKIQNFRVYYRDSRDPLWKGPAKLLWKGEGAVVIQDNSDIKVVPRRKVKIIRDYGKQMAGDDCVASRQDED
Assay: Inhibition of 3'-processing activity of HIV1 integrase using 32P-5'-TGTGGAAAATCTCTAGCAGT-3' and 5'-ACTGCTAGAGATTTTCCACA-3' as substrate after 1 hr by ELISA
MEASURED PROPERTY: IC50 (nM)
Report the value in nM with no unit label.

# annotated cases, reported IC50 shown
| MOLECULE | MEASURED PROPERTY | REPORTED VALUE |
| --- | --- | --- |
| O=C(NCc1ccc(O)cc1O)C1C(=O)N(O)C(=O)c2ccccc21 (stereo not drawn) | IC50 | 2350 |
| COc1ccc(NC(=O)C2C(=O)N(O)C(=O)c3ccccc32)cc1Cl (stereo not drawn) | IC50 | 1580 |

For the molecule O=C(NCc1ccc(F)cc1)C1C(=O)N(O)C(=O)c2ccccc21 (stereo not drawn) , what IC50 is on record?
60

====

Assay: Cytotoxicity against human MT4 cells by MTT assay
Format: cell-based
We begin with a simple list: items and their reported CC50.
Report the value in µM with no unit label.

# annotated cases, reported CC50 shown
| COMPOUND | CC50, µM |
| --- | --- |
| COc1ccc(CNC(=O)C2C(=O)N(O)C(=O)c3ccccc32)cc1OC (centres undefined) | 125 |
| COc1ccc(CNC(=O)C2C(=O)N(O)C(=O)c3ccccc32)c(OC)c1 (centres undefined) | 60.4 |
| CN(C(=O)C1C(=O)N(O)C(=O)c2ccccc21)c1ccccc1 (centres undefined) | 107 |
| O=C(NCc1ccc(O)c(O)c1)C1C(=O)N(O)C(=O)c2ccccc21 (centres undefined) | 11 |
| O=C(Nc1ccccc1)C1C(=O)N(O)C(=O)c2ccccc21 (centres undefined) | 106 |

For the compound O=C(NCCc1ccc(F)cc1)C1C(=O)N(O)C(=O)c2ccccc21 (centres undefined) , what CC50 is on record?
124

For the compound COc1ccc(NC(=O)C2C(=O)N(O)C(=O)c3ccccc32)cc1Cl (centres undefined) , what CC50 is on record?
12.3

For the compound COc1ccc(CNC(=O)C2C(=O)N(O)C(=O)c3ccccc32)cc1 (centres undefined) , what CC50 is on record?
118

For the compound O=C(NCCc1ccc(O)c(O)c1)C1C(=O)N(O)C(=O)c2ccccc21 (centres undefined) , what CC50 is on record?
63

For the compound O=C(Nc1cccc(F)c1)C1C(=O)N(O)C(=O)c2ccccc21 (centres undefined) , what CC50 is on record?
64

====

We begin with a simple list: items and their reported pIC50.
Target: UniProt Q72547
Assay: Inhibition of HIV1 recombinant reverse transcriptase RNase H activity after 10 mins
A value of pIC50 is the negative decimal logarithm of a concentration given in moles per litre.

# annotated cases, reported pIC50 shown
| COMPOUND | REPORTED VALUE |
| --- | --- |
| O=C(NCc1ccc(F)cc1)C1C(=O)N(O)C(=O)c2ccccc21 (centres undefined) | 6.44 |
| O=C(NCCc1ccc(O)c(O)c1)C1C(=O)N(O)C(=O)c2ccccc21 (centres undefined) | 6.89 |
| COc1ccc(NC(=O)C2C(=O)N(O)C(=O)c3ccccc32)cc1Cl (centres undefined) | 4.78 |
| O=C(Nc1cccc(F)c1)C1C(=O)N(O)C(=O)c2ccccc21 (centres undefined) | 5.14 |
| COc1ccc(CNC(=O)C2C(=O)N(O)C(=O)c3ccccc32)c(OC)c1 (centres undefined) | 6.20 |
| COc1ccc(CCNC(=O)C2C(=O)N(O)C(=O)c3ccccc32)cc1OC (centres undefined) | 5.41 |
| O=C(NCc1ccc(O)c(O)c1)C1C(=O)N(O)C(=O)c2ccccc21 (centres undefined) | 6.05 |
| O=C(NCc1ccc(O)cc1O)C1C(=O)N(O)C(=O)c2ccccc21 (centres undefined) | 6.28 |

Please find the next compound below.
Record lookup: for UniProt Q72547, what pIC50 belongs to Cc1ccc(CNC(=O)C2C(=O)N(O)C(=O)c3ccccc32)cc1 (centres undefined) ?
4.85

====

Experiment: Aqueous solubility of the compound in PBS at pH 7.4
Format: physicochemical
MEASURED PROPERTY: solubility (µM)
Report the value in µM with no unit label.

For the molecule O=C(NCc1ccc(F)cc1)C1C(=O)N(O)C(=O)c2ccccc21 (stereo unspecified) , what solubility is on record?
190

====

We begin with a simple list: items and their reported selectivity ratio.
Assay: Therapeutic index, ratio of CC50 for human MT4 cells to EC50 for HIV1 3B
Assay type: cell-based
Conditions: read-out: Ratio CC50/EC50
A bare number is all that is needed in reply.

# annotated cases, reported selectivity ratio shown
| COMPOUND | selectivity ratio |
| --- | --- |
| O=C(NCCc1ccc(F)cc1)C1C(=O)N(O)C(=O)c2ccccc21 (stereo unspecified) | 24 |
| COc1ccc(NC(=O)C2C(=O)N(O)C(=O)c3ccccc32)cc1Cl (stereo unspecified) | 3.7 |
| O=C(Nc1cccc(F)c1)C1C(=O)N(O)C(=O)c2ccccc21 (stereo unspecified) | 25.9 |

Please find the next compound below.
For the compound O=C(NCc1ccccc1)C1C(=O)N(O)C(=O)c2ccccc21 (stereo unspecified) , what selectivity ratio is on record?
41.7

====

Biological target: Human immunodeficiency virus type 1 integrase (Human immunodeficiency virus 1)
Assay: Inhibition of HIV1 integrase binding to LEDGF
MEASURED PROPERTY: IC50

For the compound O=C(NCc1ccc(F)cc1)C1C(=O)N(O)C(=O)c2ccccc21 (stereo unspecified) , what IC50 is on record?
> 100 µM

====

Target: Human immunodeficiency virus type 1 integrase (Human immunodeficiency virus 1, UniProt Q7ZJM1)
Test: Inhibition of HIV1 integrase overall inhibition using 5'-digoxigenin-labeled 5'-GACCCTTTTAGTCAGTGTGGAAAATCTCTAGCAGT-3' as substrate after 1 hr by ELISA
MEASURED PROPERTY: IC50 (nM)
Report the value in nM with no unit label.

# annotated cases, reported IC50 shown
| COMPOUND | IC50 / nM |
| --- | --- |
| COc1ccc(CCNC(=O)C2C(=O)N(O)C(=O)c3ccccc32)cc1OC (configuration not stated) | 495 |
| O=C(Nc1ccc(F)cc1)C1C(=O)N(O)C(=O)c2ccccc21 (configuration not stated) | 800 |
| COc1ccc(CNC(=O)C2C(=O)N(O)C(=O)c3ccccc32)cc1OC (configuration not stated) | 235 |
| O=C1NC(=O)C(C(=O)NCc2ccc(F)cc2)c2ccccc21 (configuration not stated) | 199000 |
| COc1ccc(NC(=O)C2C(=O)N(O)C(=O)c3ccccc32)cc1Cl (configuration not stated) | 20 |

For the compound COc1ccc(CNC(=O)C2C(=O)N(O)C(=O)c3ccccc32)c(OC)c1 (configuration not stated) , what IC50 is on record?
35

For the compound O=C(Nc1ccccc1)C1C(=O)N(O)C(=O)c2ccccc21 (configuration not stated) , what IC50 is on record?
310

====

We begin with a simple list: items and their reported log10 IC50.
Biological target: Human immunodeficiency virus type 1 integrase (Human immunodeficiency virus 1, UniProt Q7ZJM1)
Experiment: Inhibition of strand transfer activity of HIV1 integrase using pre-cleaved oligonucleotide as substrate after 1 hr by ELISA
Values below are the log10 of the recorded IC50, with nM as the unit.

| MOLECULE | log10 IC50 |
| --- | --- |
| COc1ccc(NC(=O)C2C(=O)N(O)C(=O)c3ccccc32)cc1Cl (configuration not stated) | 2.44 |
| O=C(NCc1ccc(F)cc1)C1C(=O)N(O)C(=O)c2ccccc21 (configuration not stated) | 2.00 |

For the molecule O=C1NC(=O)C(C(=O)NCc2ccc(F)cc2)c2ccccc21 (configuration not stated) , what log10 IC50 is on record?
4.90

For the molecule O=C(NCc1ccc(O)cc1O)C1C(=O)N(O)C(=O)c2ccccc21 (configuration not stated) , what log10 IC50 is on record?
2.76

For the molecule O=C(Nc1ccc(F)cc1)C1C(=O)N(O)C(=O)c2ccccc21 (configuration not stated) , what log10 IC50 is on record?
3.05

For the molecule O=C(NCc1ccccc1)C1C(=O)N(O)C(=O)c2ccccc21 (configuration not stated) , what log10 IC50 is on record?
1.48

====

We begin with a simple list: items and their reported IC50.
Molecular target: Human immunodeficiency virus type 1 integrase (Human immunodeficiency virus 1, UniProt Q7ZJM1)
Experiment: Inhibition of HIV1 integrase overall inhibition using 5'-digoxigenin-labeled 5'-GACCCTTTTAGTCAGTGTGGAAAATCTCTAGCAGT-3' as substrate after 1 hr by ELISA

# annotated cases, reported IC50 shown
| COMPOUND | MEASURED PROPERTY | REPORTED VALUE |
| --- | --- | --- |
| Cc1ccc(CNC(=O)C2C(=O)N(O)C(=O)c3ccccc32)cc1 (stereo unspecified) | IC50 | 76 nM |
| CN1C(=O)c2ccccc2C(C(=O)NCc2ccc(F)cc2)C1=O (stereo unspecified) | IC50 | > 250000 nM |
| O=C(Nc1cccc(F)c1)C1C(=O)N(O)C(=O)c2ccccc21 (stereo unspecified) | IC50 | 10 nM |
| O=C(NCc1ccccc1)C1C(=O)N(O)C(=O)c2ccccc21 (stereo unspecified) | IC50 | 80 nM |
| O=C(NCc1ccc(F)cc1)C1C(=O)N(O)C(=O)c2ccccc21 (stereo unspecified) | IC50 | 56 nM |

For the compound CN(C(=O)C1C(=O)N(O)C(=O)c2ccccc21)c1ccccc1 (stereo unspecified) , what IC50 is on record?
5210 nM

For the compound O=C(NCCc1ccc(O)c(O)c1)C1C(=O)N(O)C(=O)c2ccccc21 (stereo unspecified) , what IC50 is on record?
673 nM

For the compound COc1ccc(CNC(=O)C2C(=O)N(O)C(=O)c3ccccc32)cc1 (stereo unspecified) , what IC50 is on record?
1190 nM

For the compound O=C(NCc1ccc(O)cc1O)C1C(=O)N(O)C(=O)c2ccccc21 (stereo unspecified) , what IC50 is on record?
35 nM

For the compound O=C(NCc1ccc(O)c(O)c1)C1C(=O)N(O)C(=O)c2ccccc21 (stereo unspecified) , what IC50 is on record?
205 nM

For the compound O=C(NCCc1ccc(F)cc1)C1C(=O)N(O)C(=O)c2ccccc21 (stereo unspecified) , what IC50 is on record?
30 nM
